# assayed target: MRGPRX4 (Homo sapiens (Human), UniProt Q96LA9)
# Sequence (Q96LA9 whole entry): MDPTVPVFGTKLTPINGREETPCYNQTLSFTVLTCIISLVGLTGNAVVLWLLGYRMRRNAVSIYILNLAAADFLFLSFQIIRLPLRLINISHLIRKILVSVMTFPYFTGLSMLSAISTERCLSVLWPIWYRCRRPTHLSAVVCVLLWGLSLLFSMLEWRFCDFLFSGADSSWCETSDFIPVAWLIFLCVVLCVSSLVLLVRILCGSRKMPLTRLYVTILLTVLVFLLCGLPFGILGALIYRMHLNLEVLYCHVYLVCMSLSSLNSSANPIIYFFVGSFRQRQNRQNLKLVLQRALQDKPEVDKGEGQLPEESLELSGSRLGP
# test name: MRGPRX4 agonist activity (FLIPR Ca2+ assay, concentration-response)
measured attribute: EC50 (µM)
Kindly answer with a numeric value in µM, unit omitted.

Looking up C[C@]12CC3CC(C(=O)N[C@H](Cc4ccccc4)C(=O)O)(C1)C[C@@](C)(C3)C2 , I found its EC50 recorded as 0.15

====

# assayed target: MRGPRX2 (Homo sapiens (Human))
# test name: FLIPR Ca2+ assay, antagonist mode, tetracycline-inducible MRGPRX2 stable cell line
# Format: cell-based
# recorded conditions: Table 1
measured attribute: pKi (calc.)
I'd appreciate a reply containing only the number, no unit.

>  <compound>
Cc1csc(Cn2c(=S)[nH]c3ccccc3c2=O)n1 [Compound C9-7]

>  <pKi (calc.)>
6.03

$$$$
>  <compound>
O=c1c2ccccc2[nH]c(=S)n1Cc1ccc(Cl)cc1 [Compound C9-3]

>  <pKi (calc.)>
5.75

$$$$
>  <compound>
O=c1c2ccccc2[nH]c(=S)n1Cc1cccs1 [Compound C9-8]

>  <pKi (calc.)>
6.29

$$$$

Lab note: O=c1c2ccccc2[nH]c(=S)n1CCc1ccccn1 [Compound 7] gave pKi (calc.) of 5.2

====

Listing of recorded Ki by entry.
# assayed target: MRGPRX2 (Homo sapiens (Human), UniProt Q96LB1)
# Sequence (Q96LB1 whole entry): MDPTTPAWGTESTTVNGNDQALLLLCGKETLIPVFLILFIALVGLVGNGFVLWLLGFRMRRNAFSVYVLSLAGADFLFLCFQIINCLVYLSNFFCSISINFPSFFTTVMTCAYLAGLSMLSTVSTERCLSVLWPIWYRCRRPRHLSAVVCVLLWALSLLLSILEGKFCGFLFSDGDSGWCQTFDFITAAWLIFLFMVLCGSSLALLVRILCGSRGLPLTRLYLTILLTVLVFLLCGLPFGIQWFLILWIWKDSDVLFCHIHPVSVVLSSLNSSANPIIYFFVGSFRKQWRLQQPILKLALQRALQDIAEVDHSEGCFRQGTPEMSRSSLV
# test name: FLIPR Ca2+ assay, antagonist mode, tetracycline-inducible MRGPRX2 stable cell line
# Format: cell-based
# recorded conditions: Table 1; read-out: Ki
I only need the number, in nM, no unit after it.

>  <compound>
O=c1c2ccccc2[nH]c(=S)n1Cc1ccccc1 [Compound 1]

>  <quantitative result>
57

$$$$

Sample Cc1csc(Cn2c(=S)[nH]c3ccccc3c2=O)n1 [Compound C9-7] ; Ki observed: 929

The measured Ki associated with O=c1c2ccccc2[nH]c(=S)n1Cc1ccon1 [Compound C9-1] reads 172

Lab note: measured Ki of O=c1c2ccccc2[nH]c(=S)n1Cc1ccsc1 [Compound C9-9] was 47

get_value(item= O=c1c2ccccc2[nH]c(=S)n1Cc1ccon1 [Compound 5] , readout=Ki) returns 895

# Ki (compound: O=c1c2ccccc2[nH]c(=S)n1Cc1ccccc1Cl [Compound C9-4] ) is 1160

Lab note: O=c1c2ccccc2[nH]c(=S)n1Cc1ccco1 [Compound C9-6] gave Ki of 38

Lookup result for Cn1ccnc1Cn1c(=S)[nH]c2ccccc2c1=O [Compound 6] ; measured Ki: 318

====

# assayed target: UniProtKB Q96LB1
# test name: FLIPR Ca2+ assay, antagonist mode, tetracycline-inducible MRGPRX2 stable cell line
# Type: cell-based
# recorded conditions: Table 1
Give 1.0 when the value for pKi (calc.) is at least 7. Give 0.0 when it is less.

>  <compound>
O=c1c2cc(F)ccc2[nH]c(=S)n1Cc1ccccn1 [Compound 14]

>  <assayed target>
UniProtKB Q96LB1

>  <category label>
0.0

$$$$

I'd appreciate it if you could say whether Cn1ccnc1Cn1c(=S)[nH]c2ccccc2c1=O [Compound 6] has pKi (calc.) at least equal to 7.
0.0

Quick check, pKi (calc.) >= 7? O=c1c2ccccc2[nH]c(=S)n1Cc1nccs1 [Compound 9]
1.0

Item O=c1c2ccccc2[nH]c(=S)n1Cc1ccon1 [Compound C9-1] with pKi (calc.) of 7 or above?
0.0

Test whether the compound O=c1c2ccccc2[nH]c(=S)n1Cc1ccccc1Cl [Compound C9-4] records pKi (calc.) of 7 or higher.
0.0

Is reported pKi (calc.) greater than or equal to 7 here: O=c1c2ccccc2[nH]c(=S)n1Cc1ccco1 [Compound C9-6]
1.0

// inclusive: pKi (calc.) at least 7? input: O=c1c2ccccc2[nH]c(=S)n1Cc1ccsc1 [Compound C9-9]
1.0
